Test system: wildtype SecA (Escherichia coli) (E. coli, UniProt P10408 1-901)
Protocol text: fluorescence polarisation
No end group written: not given here. IANBD = IANBD fluorescent probe (code IAN) attached to the cysteine
Readout type: Kd (nM)
One number for each entry, in nM.

q: Look up Kd for this binder: MKQSTIALALLPLLFTPVTKAC(IANBD)-NH2 [SP22, 22 residue long E. coli alkaline phosphatase signal peptide with cysteine at position 22]
a: 1400
